- System: FXR:RXRa (NR concentration 270 nM, RXRa partner concentration 90 nM)
- protocol_details: PBM binding z-score (relative to random genomic background probes); higher = stronger binding; sequences stand for … in GC…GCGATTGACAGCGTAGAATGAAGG
Quick rule for you: PBM binding z-score at 0.5 or higher means Criterion met, lower means Criterion not met.

entry_sequence=ATCTCTAGGTAAAAGTTCCGTGAATCCCGAGGAT category_label="Criterion not met"
entry_sequence=TCTACTAGGTCAACGATGGTCAGCTAATCTGCTA category_label="Criterion met"
entry_sequence=TCATATAGGTAATACAGGTGAAACTCGGCATCTA category_label="Criterion met"
entry_sequence=GCTAGTTGGTTAGTAAAAGGTCACACACCGGTCG category_label="Criterion met"
entry_sequence=ATATGTCGGTTACATCCGGGTCATTCAGGCTATG category_label="Criterion met"

In: Reported PBM binding z-score reaches at least 0.5 for CCGACTGGGGCATAAGGTTGCCATAAGCCAGCCC ?
Out: Criterion not met

In: Hi team, for CCTACTAGGTCAATGGTCAGCTAAAGCAGCTCGC , is the recorded PBM binding z-score at or above 0.5?
Out: Criterion met

In: Can CCTAGTTGGTCAAGGCCACACACGCTATAGGTAC be said to have PBM binding z-score at or above 0.5?
Out: Criterion not met

In: Has CGTCCAAGGTCAATGCTAGGTGAGTGAAAGCATT a recorded PBM binding z-score greater than or equal to 0.5?
Out: Criterion met

In: Reported PBM binding z-score reaches at least 0.5 for CCGACTGGGGCAAGGTAACCATAACGCACAGCCA ?
Out: Criterion not met

In: Could you verify whether the entry ACTTACGGGTCAACGAGATTATAGCACGCGTATA shows PBM binding z-score of no less than 0.5?
Out: Criterion met

---

- Test system: RARb homodimer (NR concentration 270 nM)
- protocol_details: PBM binding z-score (relative to random genomic background probes); higher = stronger binding; sequences stand for … in GC…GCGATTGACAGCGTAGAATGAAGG
Lab note: anything with PBM binding z-score at or over 2 counts as MET; the rest go in NOT MET.

Sample answers from the record:
entry_sequence=CCTGCTAGGTCATTGTCAGCTAATCTACAGTATG category_label=MET
entry_sequence=TAGCCTAGGTGAGATCGGGCCAGTATACGCTATA category_label="NOT MET"
entry_sequence=ATCGAAAGGACGAGGTGAGTATAGAGAAAGGGAA category_label="NOT MET"
entry_sequence=GCTCAGAGGACAAGGTCAGAGCTTTGTCCGTAGA category_label=MET
entry_sequence=ACCATTAGTTGACTTAGGGCAACCGATACGACGC category_label="NOT MET"

Attention now shifts to the item below.
In: Hello, I need to know if CGTCCAAGGTCAATACTAGGTCAGTGAAAGCATT has measured PBM binding z-score not below 2. Thanks!
Out: MET

---

- Tested on: LXRb:RXRa (NR concentration 270 nM, RXRa partner concentration 90 nM)
- protocol_details: PBM binding z-score (relative to random genomic background probes); higher = stronger binding; sequences stand for … in GC…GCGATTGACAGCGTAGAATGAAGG
Classification field: YES = PBM binding z-score at or over 1; NO = PBM binding z-score under 1.

These recorded examples may help you get a feel for the data.
entry_sequence=ACTAGTTGGTCAGCTGATGTCACACACAATTCGG assayed_target="LXRb:RXRa (NR concentration 270 nM, RXRa partner concentration 90 nM)" category_label=NO
entry_sequence=CCAGACAGGTGAAAGGTAACACAGTCTGGTACGC assayed_target="LXRb:RXRa (NR concentration 270 nM, RXRa partner concentration 90 nM)" category_label=NO
entry_sequence=TAGCCTAGGTCATGCGGGCCAGTATGGTGTCGGC assayed_target="LXRb:RXRa (NR concentration 270 nM, RXRa partner concentration 90 nM)" category_label=YES
entry_sequence=CCTTATGGGTCACTGACAGGTTATAGCATTTGGA assayed_target="LXRb:RXRa (NR concentration 270 nM, RXRa partner concentration 90 nM)" category_label=YES

Read the next record carefully.
In: Reported PBM binding z-score reaches at least 1 for TCTGCTAGGTCAACGATAGTCAGCTAATCTGCTA ?
Out: YES

---

- System: PPARg:RXRa (NR concentration 180 nM, RXRa partner concentration 90 nM)
- protocol_details: PBM binding z-score (relative to random genomic background probes); higher = stronger binding; sequences stand for … in GC…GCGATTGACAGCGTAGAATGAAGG
Rule: PBM binding z-score of 3 or more gives satisfied; anything lower gives not satisfied.

# example entries with known answers
entry_sequence=CCTAGCAGGCCAGGGTCACTCAGGCATTTCGCTT category_label="not satisfied"
entry_sequence=CCTACTGGGCCAAGGTCATTGTTCAGTCAAAGCA category_label=satisfied
entry_sequence=ACGAGCAGGCCAAGGGTCACTCAAGATTAGTCCG category_label=satisfied
entry_sequence=TCTTGTAGATCAATAGCGGTTAAGAAAGTGCGCT category_label="not satisfied"

In: Check if PBM binding z-score >= 3 (inclusive). Item: CAAACTAGGTCACGCAAGGTCAAAGTCGAATGAC
Out: satisfied

In: Is it the case that AGAATGAGGTTAAGATAAGGGAAACAGAATACAT has PBM binding z-score reaching or exceeding 3?
Out: not satisfied

In: Check if PBM binding z-score >= 3 (inclusive). Item: CCTACTGGGCCATCAGGTAATTGATATCAACGTT
Out: not satisfied

In: Identify whether the reported PBM binding z-score of the following sequence is 3 or greater: CCTATTAGTTGACCATAAGGGCAACCGGAGCTCG
Out: not satisfied

---

- System: PPARg:RXRa 90nM:30nM, anti-RXR (NR concentration 90 nM, RXRa partner concentration 30 nM)
- protocol_details: PBM binding z-score (relative to random genomic background probes); higher = stronger binding; sequences stand for … in GC…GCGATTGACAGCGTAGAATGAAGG
reported_metric: PBM binding z-score
Reply briefly: the number, and no unit.

entry_sequence=CCAACTAGGTCATCCAGGACAGTGAATACATTGA value=4.83
entry_sequence=TAGCCTGGGTCATTGGGCCAGTATAGTACGCATC value=2.1
entry_sequence=CAAATTAGGTCAAAGGTCAAAGTCGAGCCAACCA value=13.7
entry_sequence=ATATGTAGGTTACAGCCGGGTCATTCAGGCTATG value=4.67

In: Return reported PBM binding z-score. Input sequence: TCATATAGGTAATACTGGTGAAAGTCGGCATCTA
Out: 3.28

In: Write down PBM binding z-score measured for item GCTAGTTGGTCAGTAAAAGGTCACAAACCGGTCG
Out: 3.46

---

- Tested on: RXRa homodimer (NR concentration 180 nM)
- protocol_details: PBM binding z-score (relative to random genomic background probes); higher = stronger binding; sequences stand for … in GC…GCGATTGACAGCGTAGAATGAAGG
PBM binding z-score class ranges: lower level (below 1), middle level (1 to below 4), upper level (4 or more)

Below are worked cases with known answers.
entry_sequence=CAAACTAGGTCAATGGTCAAAGTCGAGCCAACCA category_label="middle level"
entry_sequence=AACTCTAGGTAAGACTCAGTTCAGTGAAGAACGC category_label="lower level"
entry_sequence=CCTCGGAGGACCGAAGGTCAGAGCTGTCCGCTTT category_label="middle level"
entry_sequence=ACTCGGAGGACAAAGGTTAGAGCTACGCCAGTGA category_label="middle level"
entry_sequence=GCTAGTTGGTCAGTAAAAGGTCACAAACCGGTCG category_label="upper level"

Turning now to a further sequence:
In: Could you tell me which band ATCTCTAGGTAAGACTCAGTTCAGTGAGGAACGC belongs to?
Out: lower level

---

- Test system: LXRb homodimer (NR concentration 270 nM)
- protocol_details: PBM binding z-score (relative to random genomic background probes); higher = stronger binding; sequences stand for … in GC…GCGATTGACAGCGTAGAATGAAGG
Binning scheme for PBM binding z-score: lowest: < -0.3; middle: ≥ -0.3 and < 0.2; highest: ≥ 0.2

See these solved cases before continuing.
entry_sequence=TGAATGAGGTTAAAGATCAGAGAACGTGGCGTCG category_label=middle
entry_sequence=TCTTGTAGATCAATCGAGGTTAAGAAAGTGCGCT category_label=middle
entry_sequence=TAGCCTAGGGCATGGGCCAGTATACCACGCGAAC category_label=lowest
entry_sequence=CCTTACGGGTCATTCCAGGTTATAGCATCGGAGT category_label=highest
entry_sequence=CGTCCAAGGTCGATGCTAGGTCAGTGAAAGCATT category_label=lowest

In: Which class does CCTTACGGCTCACTGACAGGTTATAGCATTTGGA fall in?
Out: middle

In: Band for ACTATTAGATGACTTAGGGCAACCGATACGACGC ?
Out: highest

In: Class (by measured PBM binding z-score) for CCGACTGGGGCAAAGGTTACCATCCTCAGTACGA
Out: lowest

In: Determine which band this sequence sits in: CCTTCCGGGTCACTCCAGGTTATAGCATCGGAGT
Out: highest

In: # bin label for ACCGAAAGGTCGAGGTGAGTATAGAGAAAGGGAA
Out: highest

In: Just checking, what class would you give TCTTGTAGATCAACAGAAGGTTAAGAAAGATCGA here?
Out: middle

In: Classify this sequence: GCATATAGGTAATACAACGTGAAAGTCCGATTGT
Out: lowest

In: Lab note: which band did TCTGCTAGGTCACCGATGGTCAGCTAATCTGCTA land in?
Out: lowest
